Species on record: Rattus norvegicus
procedure_text: Open TG-GATES - Regimen: Single
Format: toxicity, organism-based, Sprague-Dawley
Parameters: regimen Single, gender Male, age 6 weeks
experimental_setup: in vivo, po, 0 mg/kg, 9 h, tissue Blood, route gavage, dose level Control
observable: MCH

Complete the entry with MCH for CCN1CCCC1CNC(=O)c1cc(S(N)(=O)=O)ccc1OC (centres undefined) [SULPIRIDE]
19.8 pg

Complete the entry with MCH for Oc1ncnc2[nH]ncc12
21.8 pg

Complete the entry with MCH for C[C@]12CCC(=O)C=C1CC[C@@H]1[C@@H]2CC[C@@]2(C)[C@H]1CC[C@]2(C)O
21.3 pg

Complete the entry with MCH for CC(C)(S)[C@@H](N)C(=O)O
21.1 pg

Data origin: ChEMBL document CHEMBL3885861
